- System: Escherichia coli TOP10;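 also: peptides expressed intracellularly from a pBAD plasmid library in pooled LB shake-flask culture, induced with 0.3% L-arabinose, DNA abundance read by NGS, three biological replicates, DESeq2 with apeglm shrinkage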
- experiment: shrunken log2 fold change of peptide-encoding DNA abundance (4.5 h post-induction vs induction); higher = less antimicrobial activity (less host growth inhibition)
- measurementSetup: time post-induction: 4.5 h; library: site-saturation at positions 5, 18, 19, 20
propertyName: shrunken log2 fold change

>>> datavalue("RRIRWRPPRLPRPRPRPKNQPRP")
0.123
>>> datavalue("RRIRLRPPRLPRPRPRPDNQPRP")
-0.889
>>> datavalue("RRIRQRPPRLPRPRPRPCSLPRP")
-1.03
>>> datavalue("RRIRVRPPRLPRPRPRPHFNPRP")
-0.705
>>> datavalue("RRIRCRPPRLPRPRPRPNWFPRP")
-0.201
>>> datavalue("RRIRKRPPRLPRPRPRPSIMPRP")
-0.195
>>> datavalue("RRIRCRPPRLPRPRPRPWHPPRP")
-0.0323
>>> datavalue("RRIRDRPPRLPRPRPRPPLNPRP")
0.0565
